- ASSAYED_SYSTEM: Rat brain
- EXPERIMENT: [3H] muscimol binding, rat brain (previous assays of the inventors)
- CONDITION_SET: rat brain, previous assays by the inventors
pKd: −log10 of the molar value.
QUANTITY: pKd

* NCc1cc(O)no1 [[^3 H] muscimol] | 7.55

###

The following compounds are shown together with reported IC50 values.
- ASSAYED_SYSTEM: Drosophila Grd and LCCH3 (Drosophila melanogaster, UniProt Q08832+Q24352)
- Construct: made in house; host or cells: High Five (Trichoplusia ni) cells, co-infected with vBP8-Grd and vBP8-LCCH3
- Sequence (Q24352 59-686): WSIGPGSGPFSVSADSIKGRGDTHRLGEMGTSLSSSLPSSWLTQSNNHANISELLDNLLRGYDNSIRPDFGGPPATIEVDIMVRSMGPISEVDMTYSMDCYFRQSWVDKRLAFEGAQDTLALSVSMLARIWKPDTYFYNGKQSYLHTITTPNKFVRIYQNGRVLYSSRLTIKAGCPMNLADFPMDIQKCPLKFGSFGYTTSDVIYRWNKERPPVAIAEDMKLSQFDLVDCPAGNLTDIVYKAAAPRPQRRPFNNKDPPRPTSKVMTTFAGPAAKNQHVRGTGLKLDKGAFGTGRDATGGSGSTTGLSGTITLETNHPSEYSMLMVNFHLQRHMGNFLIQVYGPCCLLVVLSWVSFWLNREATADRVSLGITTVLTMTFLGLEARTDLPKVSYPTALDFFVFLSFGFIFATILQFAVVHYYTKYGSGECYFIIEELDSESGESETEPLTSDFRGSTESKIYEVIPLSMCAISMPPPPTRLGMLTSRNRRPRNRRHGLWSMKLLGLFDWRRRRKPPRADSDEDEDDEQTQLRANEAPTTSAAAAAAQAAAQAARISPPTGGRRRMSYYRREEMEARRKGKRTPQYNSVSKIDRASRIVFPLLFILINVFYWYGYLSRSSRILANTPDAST
- Sequence (Q08832 21-496): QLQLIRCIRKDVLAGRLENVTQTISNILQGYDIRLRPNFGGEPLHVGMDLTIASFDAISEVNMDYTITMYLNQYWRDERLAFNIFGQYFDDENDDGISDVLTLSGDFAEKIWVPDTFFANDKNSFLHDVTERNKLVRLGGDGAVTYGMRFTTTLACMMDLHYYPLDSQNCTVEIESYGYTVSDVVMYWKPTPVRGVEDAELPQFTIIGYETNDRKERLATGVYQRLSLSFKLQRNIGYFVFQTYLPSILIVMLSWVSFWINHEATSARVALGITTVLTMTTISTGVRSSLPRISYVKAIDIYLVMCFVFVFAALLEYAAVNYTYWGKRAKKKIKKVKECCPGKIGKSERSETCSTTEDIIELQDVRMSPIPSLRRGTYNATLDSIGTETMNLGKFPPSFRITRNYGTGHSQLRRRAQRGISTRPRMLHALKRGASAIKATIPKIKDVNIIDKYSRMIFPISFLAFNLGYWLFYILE
- EXPERIMENT: [3H] muscimol radioligand binding assay, membranes of High Five cells co-infected with vBP8-Grd/vBP8-LCCH3
QUANTITY: IC50

• CP(=O)(O)CCCN = > 1 mM
• COc1ccc2c(c1OC)C(=O)O[C@@H]2[C@H]1c2cc3c(cc2CCN1C)OCO3 [Hydrastine] = > 1 mM
• CN1CCc2cc3c(cc2[C@H]1[C@@H]1OC(=O)c2c1ccc1c2OCO1)OCO3 = > 1 mM

###

- ASSAYED_SYSTEM: Drosophila Grd (Drosophila melanogaster, UniProt Q24352)
- Sequence (Q24352 59-686): as the sequence (Q24352 59-686) above
QUANTITY: Kd

- NCc1cc(O)no1 [[^3 H] muscimol]: > 10 µM

###

- ASSAYED_SYSTEM: Drosophila Rdl, Grd and LCCH3 (Drosophila melanogaster, UniProt P25123+Q08832+Q24352)
- Construct: excised the full-length cDNA encoding Rdl
- Sequence (Q24352 59-686, one chain of several): as the sequence (Q24352 59-686) above
- Sequence (Q08832 21-496, one chain of several): as the sequence (Q08832 21-496) above
- EXPERIMENT: [3H] muscimol radioligand binding assay, membranes of High Five cells infected with vBP8-Grd/vBP8-LCCH3/vBP8-Rdl
- CONDITION_SET: [3H] muscimol saturation binding, High Five cell membranes
QUANTITY: Kd

• NCc1cc(O)no1 [[^3 H] muscimol] = 38 nM

###

- ASSAYED_SYSTEM: Drosophila Rdl (Drosophila melanogaster)
- Sequence (P25123 45-606): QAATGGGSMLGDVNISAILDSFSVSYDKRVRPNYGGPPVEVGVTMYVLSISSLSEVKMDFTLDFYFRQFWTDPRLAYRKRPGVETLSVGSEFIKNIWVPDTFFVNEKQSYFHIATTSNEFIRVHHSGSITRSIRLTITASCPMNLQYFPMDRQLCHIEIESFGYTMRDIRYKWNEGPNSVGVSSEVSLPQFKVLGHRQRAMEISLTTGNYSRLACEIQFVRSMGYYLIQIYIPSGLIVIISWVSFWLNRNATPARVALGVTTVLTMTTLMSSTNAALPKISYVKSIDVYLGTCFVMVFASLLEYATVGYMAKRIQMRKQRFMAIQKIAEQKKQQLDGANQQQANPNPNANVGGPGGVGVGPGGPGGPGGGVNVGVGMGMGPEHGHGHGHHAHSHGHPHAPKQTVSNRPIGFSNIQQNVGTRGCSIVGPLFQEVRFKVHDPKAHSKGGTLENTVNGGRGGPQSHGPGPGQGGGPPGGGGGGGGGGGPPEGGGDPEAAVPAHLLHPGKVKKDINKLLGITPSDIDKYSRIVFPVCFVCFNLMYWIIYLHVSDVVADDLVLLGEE
pKd: −log10 of the molar value.
QUANTITY: pKd

- NCc1cc(O)no1 [[^3 H] muscimol]: 7.92

###

- ASSAYED_SYSTEM: Drosophila Rdl (Drosophila melanogaster)
- Construct: excised the full-length cDNA encoding Rdl; made in house; host or cells: High Five (Trichoplusia ni) cells, baculovirus vBP8-Rdl
- EXPERIMENT: [3H] muscimol radioligand binding assay, membranes of High Five cells infected with vBP8-Rdl
- CONDITION_SET: half-maximal displacement of [3H] muscimol; read-out: IC50, Rdl
The following compounds are shown together with reported IC50 values.
QUANTITY: IC50

* NCC(CC(=O)O)c1ccc(Cl)cc1 (stereo not drawn) | > 1000 µM
* COc1ccc(-c2ccc(=N)n(CCCC(=O)O)n2)cc1 | > 1000 µM
* O=S(=O)(O)C1CCNCC1 [Piperidine-4-sulfonate] | > 1000 µM
